pIC50, aromatase (CYP19A1) (Homo sapiens), per-entry values.
# log scale: pIC50 equals minus log10 of the concentration in mol/L

Briefly, pIC50 measured for `CC(C)=CCc1c(O)cc2c(c1O)C(=O)C[C@@H](c1ccc(O)cc1)O2` : 5.13

* * *

Sequence of the target: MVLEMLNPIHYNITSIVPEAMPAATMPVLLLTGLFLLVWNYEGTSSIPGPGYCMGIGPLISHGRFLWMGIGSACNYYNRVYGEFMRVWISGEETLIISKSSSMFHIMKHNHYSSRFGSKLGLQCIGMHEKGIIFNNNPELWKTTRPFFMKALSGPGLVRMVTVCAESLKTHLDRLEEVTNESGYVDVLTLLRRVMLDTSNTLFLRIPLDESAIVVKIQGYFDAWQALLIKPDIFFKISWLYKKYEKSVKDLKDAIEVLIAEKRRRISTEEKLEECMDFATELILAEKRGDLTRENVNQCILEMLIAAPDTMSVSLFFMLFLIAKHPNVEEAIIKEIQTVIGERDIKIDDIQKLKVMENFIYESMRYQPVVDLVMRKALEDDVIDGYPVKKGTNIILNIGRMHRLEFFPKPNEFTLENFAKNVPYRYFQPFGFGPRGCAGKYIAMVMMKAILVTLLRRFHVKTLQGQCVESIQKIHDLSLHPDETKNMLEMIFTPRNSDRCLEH
RECORDED_ENDPOINT: IC50 (nM)
Please respond with the number in nM and leave the unit unwritten.

CC(C)=CCc1c(O)cc(O)c2c(=O)cc(-c3ccc(O)cc3)oc12 :: 590

Short answer for `COc1cc(O)c(CC=C(C)C)c(O)c1C(=O)/C=C/c1ccc(O)cc1` : IC50 was 4300

Measured IC50, `O=C1C[C@@H](c2ccc(O)cc2)Oc2cc(O)ccc21` : 430

IC50 in this record for `CC(C)=CCc1c(O)cc(O)c2c1O[C@H](c1ccc(O)cc1)CC2=O` : 50

Data point: `C=CC(C)(C)c1cc(/C=C/C(=O)c2ccc(O)cc2)c(OC)cc1O` ; IC50 = 3200

# IC50 (compound: `O=C(/C=C/c1ccc(O)cc1)c1ccc(O)cc1O` ) is 4000
